# AC50 per entry
# tgt: D(1A) dopamine receptor (Homo sapiens, UniProt P21728)
# Sequence (P21728 whole entry): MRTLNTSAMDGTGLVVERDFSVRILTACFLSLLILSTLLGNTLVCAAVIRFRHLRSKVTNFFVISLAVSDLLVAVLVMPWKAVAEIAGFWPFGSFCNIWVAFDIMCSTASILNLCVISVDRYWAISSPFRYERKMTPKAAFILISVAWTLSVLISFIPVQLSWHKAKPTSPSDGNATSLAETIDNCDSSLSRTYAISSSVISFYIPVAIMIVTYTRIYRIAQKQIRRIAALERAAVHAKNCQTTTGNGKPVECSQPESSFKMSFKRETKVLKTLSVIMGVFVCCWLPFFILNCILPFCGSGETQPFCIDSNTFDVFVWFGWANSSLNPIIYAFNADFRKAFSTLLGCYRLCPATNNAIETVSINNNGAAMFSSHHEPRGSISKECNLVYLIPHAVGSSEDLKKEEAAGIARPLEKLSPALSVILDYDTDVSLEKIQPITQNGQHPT
# Type: functional, cell-based

The cases that follow already have their AC50 on record.
compound: CCN(CC)C(=O)N[C@H]1C[C@@H]2c3cccc4[nH]cc(c34)C[C@H]2N(C)C1 [TERGURIDE]
recorded-result: 0.049 µM
--
compound: CCOC(=O)OC(C)OC1=C(C(=O)Nc2ccccn2)N(C)S(=O)(=O)c2ccccc21 (stereo not drawn) [AMPIROXICAM]
recorded-result: > 30 µM
--
compound: Cc1c(OCC(F)(F)F)ccnc1C[S+]([O-])c1nc2ccccc2[nH]1 (stereo not drawn) [LANSOPRAZOLE]
recorded-result: > 10 µM
--
compound: O=C(O)[C@H](CC(=O)N1C[C@H]2CCCC[C@H]2C1)Cc1ccccc1 [MITIGLINIDE]
recorded-result: > 10 µM
--
compound: CCCc1nc(C(C)(C)O)c(C(=O)OCc2oc(=O)oc2C)n1Cc1ccc(-c2ccccc2-c2nnn[nH]2)cc1 [OLMESARTAN MEDOXOMIL]
recorded-result: > 10 µM
--
compound: CC=CC(=O)N(CC)c1ccccc1C
recorded-result: > 10 µM
--
compound: CC(=O)OCC(=O)[C@@]12N=C(C)O[C@@H]1C[C@H]1[C@@H]3CCC4=CC(=O)C=C[C@]4(C)[C@H]3[C@@H](O)C[C@@]12C [DEFLAZACORT]
recorded-result: > 30 µM

Turning now to a further compound:
Prompt: Suppose we examine the compound NCC(CC(=O)O)c1ccc(Cl)cc1 (stereo not drawn) [BACLOFEN] ; what AC50 value has been reported?
Completion: > 30 µM

---

# tgt: Amine oxidase [flavin-containing] A (Homo sapiens, UniProt P21397)
# Sequence (P21397 whole entry): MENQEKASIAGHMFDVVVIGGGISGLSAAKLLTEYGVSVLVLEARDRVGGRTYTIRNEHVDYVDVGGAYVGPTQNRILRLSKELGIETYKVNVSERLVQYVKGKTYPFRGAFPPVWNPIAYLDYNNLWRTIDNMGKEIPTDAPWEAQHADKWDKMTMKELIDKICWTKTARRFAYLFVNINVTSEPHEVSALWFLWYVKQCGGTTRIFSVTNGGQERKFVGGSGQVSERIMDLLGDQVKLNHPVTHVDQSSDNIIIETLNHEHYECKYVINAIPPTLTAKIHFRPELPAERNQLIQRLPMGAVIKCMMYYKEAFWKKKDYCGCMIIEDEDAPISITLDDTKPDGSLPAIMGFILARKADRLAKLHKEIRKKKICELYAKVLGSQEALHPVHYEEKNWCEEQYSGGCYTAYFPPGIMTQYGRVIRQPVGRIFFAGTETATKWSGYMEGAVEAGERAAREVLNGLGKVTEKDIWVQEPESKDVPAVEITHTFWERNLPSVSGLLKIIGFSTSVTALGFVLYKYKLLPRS
# Assay type: functional
recorded-metric: AC50

compound: Nc1nc(Cl)nc2c1ncn2[C@H]1C[C@H](O)[C@@H](CO)O1 [CLADRIBINE]
AC50: > 30 µM
--
compound: CC(C[N+](C)(C)C)OC(N)=O (centres undefined) [BETHANECHOL]
AC50: > 10 µM
--
compound: COc1ccc(CCN(C)CCCC(C#N)(c2cc(OC)c(OC)c(OC)c2)C(C)C)cc1OC (centres undefined) [GALLOPAMIL]
AC50: > 30 µM
--
compound: COCCCN1CCC(NC(=O)c2cc(Cl)c(N)c3c2OCC3)CC1 [PRUCALOPRIDE]
AC50: > 30 µM
--
compound: O=P1(NCCCl)OCCCN1CCCl (centres undefined) [IFOSFAMIDE]
AC50: > 30 µM
--
compound: CCOc1ccccc1OCC1CNCCO1 (centres undefined) [VILOXAZINE]
AC50: > 10 µM
--
compound: C=CCN1C[C@H](C(=O)N(CCCN(C)C)C(=O)NCC)C[C@@H]2c3cccc4[nH]cc(c34)C[C@H]21 [CABERGOLINE]
AC50: > 10 µM
--
compound: CN1C(=O)C(O)N=C(c2ccccc2Cl)c2cc(Cl)ccc21 (centres undefined) [LORMETAZEPAM]
AC50: > 30 µM

Turning now to a further compound:
Prompt: Which AC50 is reported with Amine oxidase [flavin-containing] A (Homo sapiens, UniProt P21397) for this entry: COc1ccccc1N1CCN(CC(O)COc2cccc3ccccc23)CC1 (centres undefined) [NAFTOPIDIL] ?
Completion: > 30 µM
